For each record, write down the corresponding activity at 1 µM.
# Test system: P. berghei-ANKA-GFP-LucCON liver stage parasites in HepG2-A16-CD81EGFP cells
# Protocol Description: P. berghei liver stage Pb-Luc assay, Method 1 (UCSD, 1536-well); note: reference of the scale not given here
# Format: cell-based, Plasmodium berghei
# Test Conditions: Plasmodium berghei, 48 h, nominal 1 uM (10 mM stock); […] for 15 mM, 1.2 uM for 12 mM, 2 uM for 20 mM stock; average of 2 wells, 1536-well plate; repeat 3; read-out: Pb-Luc signal, 1 uM, repeat 3
Field format: number, assumed %, no unit text.

For the molecule Cn1nnnc1SCCCNCc1cccc(OCc2ccccc2)c1 , what activity at 1 µM is on record?
127

Cool, now Cc1nn2c(c1-c1ccccc1-c1ccccc1)N(CC1CC1)CCC2
66.1

What do you get for O=C(O)c1ccc(-c2nc3cnccc3[nH]2)cc1 ?
137

One more molecule: COc1ccc(-c2noc(-c3cccn3CC(=O)Nc3cccc(Cl)c3C)n2)cc1F
132

Queued: CCCOC(=O)c1c(NC(=O)C(C)Sc2nc(-c3ccccc3)cc(C(F)(F)F)n2)sc(C(=O)N(C)C)c1C (stereo not shown)
101

And CCOC(=O)C1(Cc2ccccc2Cl)CCNCC1 ?
89.2

Thanks! And COc1ccc2[nH]c(C[C@@H]3C[C@@H](C(C)C)[C@H](CNCc4ccccc4OC)C=C3C)nc2c1 ?
77.5

Likewise for Cc1ccc(CN2COc3cc(C)c4c(oc(=O)c5ccccc54)c3C2)cc1 ?
96.8

Please answer likewise for CC1=C(C(=O)Nc2ccc(C)cc2C)C(c2ccc(Br)cc2)n2ncc(C(=O)Nc3cccc(C)c3)c2N1 (stereo not shown)
115

# iterate: C[C@H]1[C@@H]2[C@H]3OC(=O)[C@@H](C)[C@@H]3CC[C@@]2(C)CC[C@@H]1NC(=O)CC(C)(C)C
103

Also need CCc1cccc(-n2c(=O)c3cccnc3n2CC(=O)NCc2ccccc2)c1 , thanks.
118

Queued: CCC(CC)c1cc([C@H]2CN3CC[C@H]2C[C@@H]3CN[S+](=O)([O-])c2cccs2)nc(-c2ccncc2)n1
109

Next molecule: Cc1cnc(CC2CCN([S+](=O)([O-])c3ccccc3)CC2)n1Cc1ccccc1
138

Please do the same for Cc1nn2c(c1-c1ccccc1-c1ccccc1)N(CCC(C)C)CCC2 as well.
5.15

Cool, now CC1=C[C@@H](CN(C)C)[C@H](C(C)C)C[C@H]1Cc1nc2ncc(Cl)cc2[nH]1
112

# iterate: CC1=C[C@@H](CNCc2cccnc2)[C@H](C(C)C)C[C@H]1Cc1nnc(-c2ccc([N+](=O)[O-])cc2)o1
71.6

Try the molecule CCOc1ccccc1CN1CCCN(Cc2ccncc2)C(c2ccccc2)CC(=O)NCC1 (stereo not shown)
111

Then this molecule: CCC(=O)N1CCc2cc(Br)cc([S+](=O)([O-])N3CCCC(C(=O)Nc4ccc(OC)c(Cl)c4)C3)c21 (stereo not shown)
75.8

What about this molecule? COc1ccc(-c2ccc3ncc(Nc4ccc(C(N)=O)cc4)n3n2)cc1OC
74.5

Also check CCC(CC)c1cc([C@H]2CN3CC[C@H]2C[C@@H]3CN[S+](=O)([O-])c2ccccc2C#N)nc(-c2ccncc2)n1
103

Try this molecule next: CCN1CCN(c2cc(C)c3cc(NC(=O)c4cc(OC)c(OC)c(OC)c4)ccc3n2)CC1
138

Queued: COc1ccccc1NC(=O)N1CCOc2ccc(CN3CCc4ccccc4C3)cc2C1
108

Can you handle COC(=O)c1ccc2[nH]c(C[C@@H]3C[C@@H](C(C)C)[C@H](CNC4CCCCC4)C=C3C)nc2c1 next?
98.9

Now the same for CC1=C(C(=O)Nc2ccc(C)cc2C)C(c2ccc([N+](=O)[O-])cc2)n2ncc(C(=O)Nc3ccc(F)cc3)c2N1 (stereo not shown)
122

Now the same for COc1ccccc1NC(=O)Cn1cccc1-c1nc(-c2ccc(F)cc2)no1
138

Can you handle O=C(Nc1ccc2c(N3CCOCC3)ncnc2c1)c1cccc(Br)c1 next?
53.9

// repeat for CC(C)C(=O)N1Cc2ccccc2CC2(CCCN(CC3CCCCC3)C2)C1 (stereo not shown) and report
116

Consider next the molecule O=C(Nc1ccc2c(N3CCCC3)ncnc2c1)c1cccc(F)c1 in the same way.
106

Next entry: Fc1ccc(N2CCCN(C[C@H]3[C@@H]4CNC[C@@H]43)CC2)cc1
120

CCOC(=O)c1c(S(=O)(=O)N2CCCC(C(=O)N3CCN(c4cccc(C)c4C)CC3)C2)c(C)n(C)c1C (stereo not shown) ?
120

Please give the result for Cc1ccc([S+](=O)([O-])N2CCC(OC3CCN(Cc4ccccc4)CC3)CC2)c(C)c1 too.
76.6
